test-details: protein stability index of a GFP-peptide fusion (yeast GPS) (PSI 1-4); higher = more stable; sorted into four equal gates, so the index is relative within each strain
condition-parameters: pdr5∆
Given measured protein stability index, output 1 (yes) if it is greater than or equal to 3 and 0 (no) if not.

sequence_content="QQVEGKLSQMILDKIFY [RPN6]" class_name="0 (no)"
sequence_content="LFGQSQQPQTNTAPGLG [YGR119C/NUP57]" class_name="0 (no)"
sequence_content="NTFVTRLNNVFVIGEQG [RPS4A]" class_name="0 (no)"
sequence_content="QMEDMEESINEFKSIEI [SMC4]" class_name="1 (yes)"
sequence_content="LKFLYLLDAYSHIESDS [MED1]" class_name="0 (no)"
sequence_content="DANLNDLPETGFFENIE [IRR1]" class_name="1 (yes)"
sequence_content="TLAEVKAAGLTAAYART [RPL13A]" class_name="0 (no)"

---

test-details: protein stability index of a GFP-peptide fusion (yeast GPS) (PSI 1-4); higher = more stable; sorted into four equal gates, so the index is relative within each strain
condition-parameters: pdr5∆
Overview of recorded protein stability index for various sequences
assay-readout: protein stability index

sequence_content="WSFDLPEMSNLYRLSTP [PRP8]" obs_value=2.71
sequence_content="AHTASVGVVFGSGAANE [COR1]" obs_value=3.29
sequence_content="NGKVQYFLRRQYILQIV [YJL039C/NUP192]" obs_value=1.56
sequence_content="EHTDVIDELIDTKLRLE [YIL149C/MLP2]" obs_value=3
sequence_content="LAVFLFDIYNRDRKLIT [YJL039C/NUP192]" obs_value=1.46
sequence_content="GISKKTRIAGVVYHPSN [RPS8A]" obs_value=2.46
sequence_content="LVKDRKFLREVFVDGEA [RPO21]" obs_value=3.46
sequence_content="KSHVLLATPVQFELLSR [BRR2]" obs_value=1.58
sequence_content="STRASTVPNLPTTMVTN [ISW2]" obs_value=2.38
sequence_content="YVKAVSDKAQLNVVMKN [SMC4]" obs_value=2.07
sequence_content="DSFIEKIIPKDISATQL [ITC1]" obs_value=3.17
sequence_content="QLKHTKLALAENDTNMN [SMC4]" obs_value=3.12
sequence_content="VAIGNTYGFLTPNLWAE [RPS2]" obs_value=2.49
sequence_content="RGIPRLSEDELRELDVE [SMC4]" obs_value=3.68
sequence_content="NVRVGQAVETVGQAGRP [RPN1]" obs_value=3.14
sequence_content="WTSTQRHHWQYTKASLA [SSN8]" obs_value=1.38
sequence_content="EIEPILMEIHNILKVDS [RGR1]" obs_value=1.84
sequence_content="FHILLKLILEWVAPQES [ECM29]" obs_value=2.08
sequence_content="FDINRSHKEGRRVPKEL [SEC65]" obs_value=2.52
sequence_content="LLKKELLTIEPKLKEAT [SMC2]" obs_value=3.14
sequence_content="GLFGNKPALGSLGSSST [YGR119C/NUP57]" obs_value=2.63
sequence_content="INDRNDRAIRKTCQWYS [DIS3]" obs_value=3.09
sequence_content="LMVFNDDTKNQDSMSKG [YGR119C/NUP57]" obs_value=3.46
sequence_content="SIREDILECDLLICIGT [SIR2]" obs_value=2.15
sequence_content="SKKNRPTLQVGDLVYAR [RRP40]" obs_value=2.48
sequence_content="SGNNNGGFTNLTSQAPQ [YDL088C/ASM4]" obs_value=3.31
sequence_content="HLELYTSQYGTPSTETA [PRE3]" obs_value=1.9
sequence_content="TGTARLNSMPNNVNEYS [YJL039C/NUP192]" obs_value=2.74
sequence_content="AASAAGYDRHITIFSPE [SCL1]" obs_value=2.76
sequence_content="FANNLKSAISNNFRESD [SIR4]" obs_value=2.59

---

test-details: protein stability index of a GFP-peptide fusion (yeast GPS) (PSI 1-4); higher = more stable; sorted into four equal gates, so the index is relative within each strain
condition-parameters: san1∆
Note to self: class labels come from recorded protein stability index, ranges listed here: c1: < 2; c2: ≥ 2 and < 3; c3: ≥ 3

sequence_content="CAACHSLDRVAWRTLVG [CYT1]" class_name=c1
sequence_content="RRRKGISTGGFMSNDGP [SNU114]" class_name=c1
sequence_content="DGTSTEKTFLHLPCTIE [RPN8]" class_name=c2
sequence_content="GTNNISQHGQGNNPSWV [YDL088C/ASM4]" class_name=c3
sequence_content="KEEVCQGMEGTVDLALF [YMR129W/POM152]" class_name=c3
sequence_content="TGDADEPELRVLSTEEI [RPO21]" class_name=c3
sequence_content="YCDSMGRPQRKMMSFQA [RPB5]" class_name=c3
sequence_content="SPMGAQPSYNSAIIENA [GAL11]" class_name=c2
sequence_content="EEEKELTEEELKTRYVG [RPN11]" class_name=c3
sequence_content="NQILMSVNFFVSLLKKN [RPL1A]" class_name=c2
sequence_content="VKDEAFDDLLKPVYKGK [RET1]" class_name=c3
sequence_content="ATFLKLAAPQLVQMYIG [RPT5]" class_name=c1
sequence_content="TGAGVSTSLGIPDFRSS [SIR2]" class_name=c2
sequence_content="VYREVCAACHSLDRVAW [CYT1]" class_name=c2
sequence_content="ITSNHKSSVPGSAELRN [RPN3]" class_name=c2
sequence_content="LAVKVHGGSRYATKDGV [QCR2]" class_name=c1
sequence_content="TEDIRIRAQNFKSALAN [RRP6]" class_name=c2
sequence_content="CLENARSQISEKDAKIN [SIR4]" class_name=c3
sequence_content="SVILSVISMFVLPIFTT [YML031W/NDC1]" class_name=c1
sequence_content="VYSKQATFLLTDIKDTL [MCD1]" class_name=c2
sequence_content="IDYLQRNDKTLELMDSK [POP1]" class_name=c2
sequence_content="HAKRKTVTSLDVVYALK [HHF1]" class_name=c3
sequence_content="QAPTELELQVAQAFVEL [RPS7A]" class_name=c2
sequence_content="QVRNQVFMLDTKRLGTP [RGR1]" class_name=c2
sequence_content="LVRYGLAEKVEKASRQQ [RPS24A]" class_name=c3
sequence_content="DTKSVVGLVMFSQFWYW [RPN2]" class_name=c2
sequence_content="IKNISNRVGLTLDNIDD [ARP9]" class_name=c3
sequence_content="KVNPNIMNMIENVEKKE [SMC2]" class_name=c2
sequence_content="NRGVKLEIVYGYALRDV [RPP1]" class_name=c2
sequence_content="KLRSELGYKDTSVIQDL [BRR2]" class_name=c2
sequence_content="HRINMDKYHPGYFGKVG [RPL28]" class_name=c3
sequence_content="DNNYNTAETNNKVHETS [YDL088C/ASM4]" class_name=c2
sequence_content="VGLRSNTHAVLVALKRN [PRE5]" class_name=c1
sequence_content="FLYEILSSLKSFAIYSS [SRB8]" class_name=c1
sequence_content="GFKTPKTAIEGSYIDKK [RPS11A]" class_name=c3
sequence_content="LLATKQHDSSANEDEEE [CSN12]" class_name=c2
sequence_content="IISRLNADFQKPWFATV [FAS1]" class_name=c2
sequence_content="IIFQQLLFWTDPRNLVN [YCG1]" class_name=c3
sequence_content="IVDPTAEQLKISLSVHT [RRP46]" class_name=c2
sequence_content="TVIRGNSIISLEALDAI [SMX2]" class_name=c2
sequence_content="VLKSSVYEYVIASTLGP [RPC82]" class_name=c1
sequence_content="KASTISRGAVSGQKAGL [RPL2A]" class_name=c2
sequence_content="FGAKSDEKKDSDSSKPA [YJL041W/NSP1]" class_name=c3
sequence_content="MEDVKIQKEEEPENNTV [SWI3]" class_name=c3
sequence_content="PSTGGVKKPHRYKPGTV [HHT1]" class_name=c1
sequence_content="WKRQISYFLKLLGNCYS [SRB8]" class_name=c1
sequence_content="YLERIELSFYILYSFKL [YML103C/NUP188]" class_name=c1
sequence_content="NQASTSKRVYKILSPTM [CDC53]" class_name=c2

---

test-details: protein stability index of a GFP-peptide fusion (yeast GPS) (PSI 1-4); higher = more stable; sorted into four equal gates, so the index is relative within each strain
condition-parameters: ubr1∆
In this section we review reported protein stability index values for a set of sequences.
assay-readout: protein stability index

sequence_content="ATDLAGPANNPNEFMQF [PRP8]" obs_value=3.4
sequence_content="TAETNNKVHETSSKSSS [YDL088C/ASM4]" obs_value=2.89
sequence_content="GFERLTVNEPQMSDKHA [SRB7]" obs_value=3.16
sequence_content="SRLKALNLQFKAKVDDL [YLR335W/NUP2]" obs_value=3.11
sequence_content="VYPITLSTDATSADLKS [UBP6]" obs_value=2.4
sequence_content="SLRILAKLSERSNGSVA [YJL039C/NUP192]" obs_value=2.42
sequence_content="DEAEGRFEVINNETEQL [SMC1]" obs_value=2.82
sequence_content="VNRSVVVSAVGEARNDI [YAR002W/NUP60]" obs_value=2.2
sequence_content="NSYQPSPFFVLDEVDAA [SMC1]" obs_value=2.77
sequence_content="SVILSVISMFVLPIFTT [YML031W/NDC1]" obs_value=1.93
sequence_content="DSFKYEPLAPGNDNLIK [YLR335W/NUP2]" obs_value=2.85
sequence_content="AEEAAAEEEEESDDDMG [RPP0]" obs_value=3.27
sequence_content="VSPNISSASPSALTSPT [SIR3]" obs_value=2.53
sequence_content="EFDSDDDDISDDEEDEI [RPN4]" obs_value=3.31
